Origin of the recorded values: patent US20080090805A1

- Tested on: NSA mice
- test: Hypothermia study (block of CP 55,940-induced hypothermia)
- Format: in vivo
- Parameters: unit not given here
- recorded-conditions: 0.3 mg/kg
Each entry falls into one class according to its Hypothermia 0.3 mg/kg; the ranges are Low: < 10; Medium: ≥ 10 and < 20; High: ≥ 20

molecule="CC(C)CNC(=O)c1ccc2c(c1)N=C(c1ccc(Cl)s1)c1ccccc1S2 [drawing 1578]" class=High

Q: Form: Item = CC(C)CNC(=O)c1ccc2c(c1)N=C(c1ccc(Cl)cc1F)c1ccccc1S2 [drawing 1576] ; Class = ?
Result: Low

Q: One more molecule: O=C(NN1CCCCCC1)c1ccc2c(c1)N=C(c1ccc(Cl)s1)c1ccccc1S2 [drawing 1584]
Result: High

Q: Now the same for O=C(NCc1cccc(Cl)c1)c1ccc2c(c1)N=C(c1ccc(Cl)cc1)c1cc(F)ccc1S2 [drawing 1583]
Result: Medium

----------
- target-under-test: CB1 (mutant) (Homo sapiens)
- Sequence (P21554 1-417, change not shown): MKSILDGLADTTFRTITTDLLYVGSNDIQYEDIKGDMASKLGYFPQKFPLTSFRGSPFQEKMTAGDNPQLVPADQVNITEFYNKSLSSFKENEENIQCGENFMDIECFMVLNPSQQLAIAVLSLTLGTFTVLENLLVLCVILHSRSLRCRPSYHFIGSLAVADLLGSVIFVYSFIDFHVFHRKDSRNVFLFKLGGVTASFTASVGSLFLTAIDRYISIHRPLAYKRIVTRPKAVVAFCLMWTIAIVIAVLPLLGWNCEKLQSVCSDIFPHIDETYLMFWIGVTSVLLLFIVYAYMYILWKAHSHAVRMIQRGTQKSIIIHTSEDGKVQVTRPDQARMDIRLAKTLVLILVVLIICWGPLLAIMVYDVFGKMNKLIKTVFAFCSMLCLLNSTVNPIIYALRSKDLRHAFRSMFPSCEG
- test: R-SAT functional receptor assay, CB1 (mutant, truncated after amino acid 417)
- Assay type: cell-based
- recorded-conditions: Appendix A; R-SAT CB1; receptor form (mutant or wild-type) not stated; read-out: pIC50 (converted)
Field 'label' (enum: 1 / -1). Set to 1 when IC50 is strictly under 40 nM; else -1.

Solved cases (5 shown):
compound=Cc1ccsc1C1=Nc2cc(C(=O)NCc3cccnc3)ccc2Sc2ccccc21 class=-1
compound=CCOC(=O)c1ccc(C2=Nc3cc(C(=O)NNC(=O)Cc4ccccc4)ccc3Sc3ccccc32)cc1 class=-1
compound=Cc1cccnc1C1=Nc2cc(C(=O)NCc3cccnc3)ccc2Sc2ccccc21 class=-1
compound=COc1ccc(C2=Nc3cc(C(=O)NCc4ccccn4)ccc3Sc3ccccc32)cc1 class=-1
compound="CCCCNC(=O)c1ccc2c(c1)N=C(c1ccc(Cl)s1)c1ccccc1S2 [drawing 575]" class=1

Q: Find out if reported IC50 for `O=C(NCc1cccnc1)c1ccc2c(c1)N=C(c1ccccn1)c1ccccc1S2` is less than 40 nM
Result: -1

Q: Ok, now CC(C)CNC(=O)c1ccc2c(c1)N=C(c1ccc(Cl)cc1)c1ccc(F)cc1S2 [drawing 949]
Result: 1

Q: Also `O=C(NN1CCOCC1)c1ccc2c(c1)N=C(c1ccc(Cl)cc1)c1ccccc1S2` ?
Result: -1

----------
- test: in vitro
- recorded-conditions: human, microsomes, pH 7.4
Recorded microsomal CLint at 1 μM, one value per entry.
Express it in µL/min/mg; write the number only.

compound="O=C(NC1CCC(F)(F)CC1)c1ccc2c(c1)N=C(c1cccc(Cl)c1)c1ccccc1S2 [drawing 1715]" units=µL/min/mg reading=3
compound="CC(C)CCNC(=O)c1ccc2c(c1)N=C(c1ccc(F)cc1)c1ccccc1S2 [drawing 1771]" units=µL/min/mg reading=52
compound="O=C(NCc1ccccc1Cl)c1ccc2c(c1)N=C(c1ccccc1F)c1ccccc1S2 [drawing 1794]" units=µL/min/mg reading=59
compound="O=C(NCc1ccc(F)cc1)c1ccc2c(c1)N=C(c1cccc(Cl)c1)c1ccccc1S2 [drawing 1662]" units=µL/min/mg reading=27
compound="COc1cccc(C2=Nc3cc(C(=O)NC4CCC(F)(F)CC4)ccc3Sc3ccccc32)n1 [drawing 1673]" units=µL/min/mg reading=25

Q: Reported microsomal CLint at 1 μM for O=C(NN1CCCCCC1)c1ccc2c(c1)N=C(c1cccc(F)c1)c1ccccc1S2 [drawing 1693] : what is it?
Result: 84

Q: Entry to check: O=C(NN1CCCCC1)c1ccc2c(c1)N=C(c1ccc(F)cc1)c1ccccc1S2 [drawing 1685]
Result: 61

Q: Can you handle CC(C)CCNC(=O)c1ccc2c(c1)N=C(c1cccc(F)c1)c1ccccc1S2 [drawing 1713] next?
Result: 46

----------
# Emax per record follows
- target-under-test: CB1 (mutant) (Homo sapiens)
- test: R-SAT functional receptor assay, CB1 (mutant, truncated after amino acid 417)
- Type: cell-based
- recorded-conditions: Appendix A; R-SAT CB1; receptor form not stated; relative to SR141716 (100%); read-out: % Inhibition
Please reply with the bare figure in % and do not write the unit itself.

Q: Recorded Emax of Cc1csc(CNC(=O)c2ccc3c(c2)N=C(c2ccc(Cl)s2)c2ccccc2S3)c1 [drawing 655] , please.
Result: 94

----------
- target-under-test: CB1 (mutant) (Homo sapiens)
- test: R-SAT functional receptor assay, CB1 (mutant, truncated after amino acid 417)
- Format: cell-based
- recorded-conditions: Appendix A; R-SAT CB1; receptor form not stated; relative to SR141716 (100%); read-out: % Inhibition
The label depends only on Emax: satisfied if it is at least 90%, not satisfied if it is smaller.

Here's what some known entries look like.
molecule="O=C(NCc1ccccc1Cl)c1ccc2c(c1)N=C(c1ccccc1)c1ccccc1S2 [drawing 594]" target_under_test="CB1 (mutant) (Homo sapiens)" class="not satisfied"
molecule="CC(NC(=O)c1ccc2c(c1)N=C(c1cccc(Cl)c1)c1ccccc1S2)c1ccccc1 (stereo not drawn) [drawing 582]" target_under_test="CB1 (mutant) (Homo sapiens)" class="not satisfied"
molecule="Cc1ccsc1C1=Nc2cc(C(=O)NCCCC(F)(F)F)ccc2Sc2ccccc21 [drawing 599]" target_under_test="CB1 (mutant) (Homo sapiens)" class=satisfied
molecule=CON(C)C(=O)c1ccc2c(c1)N=C(c1ccc(Cl)cc1Cl)c1ccccc1S2 target_under_test="CB1 (mutant) (Homo sapiens)" class="not satisfied"
molecule="O=C(NCc1ccc(Cl)cc1Cl)c1ccc2c(c1)N=C(c1ccccc1F)c1ccccc1S2 [drawing 568]" target_under_test="CB1 (mutant) (Homo sapiens)" class="not satisfied"

Q: # check: Emax of O=C(NCc1cccs1)c1ccc2c(c1)N=C(c1ccccn1)c1ccccc1S2 [drawing 1037] is greater than or equal to 90%
Result: satisfied

Q: Now this one: O=C(NCc1cccc(Cl)c1)c1ccc2c(c1)N=C(c1ccc(Cl)cc1)c1ccccc1S2 [drawing 579]
Result: satisfied

Q: Again, but for O=C(NN1CCCCC1)c1ccc2c(c1)N=C(c1ccc(F)cc1)c1ccccc1S2 [drawing 680]
Result: not satisfied

----------
- target-under-test: native CB1 receptors (Rattus norvegicus, UniProt P20272)
- Sequence (P20272 whole entry): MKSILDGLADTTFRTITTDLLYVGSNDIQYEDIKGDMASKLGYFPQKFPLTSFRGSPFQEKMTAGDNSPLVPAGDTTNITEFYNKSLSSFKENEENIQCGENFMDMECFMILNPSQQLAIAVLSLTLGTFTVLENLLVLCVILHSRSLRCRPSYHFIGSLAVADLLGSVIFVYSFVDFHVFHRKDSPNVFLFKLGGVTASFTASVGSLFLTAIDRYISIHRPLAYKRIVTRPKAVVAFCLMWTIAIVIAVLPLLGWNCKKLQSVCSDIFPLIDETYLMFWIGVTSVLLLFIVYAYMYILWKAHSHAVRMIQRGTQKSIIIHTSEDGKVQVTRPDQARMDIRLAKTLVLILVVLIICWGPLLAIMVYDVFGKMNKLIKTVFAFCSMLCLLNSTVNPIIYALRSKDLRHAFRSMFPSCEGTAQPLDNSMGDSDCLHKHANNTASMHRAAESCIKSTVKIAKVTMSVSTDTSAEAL
- test: CB1 receptor rat binding assay ([3H]SR141716A, rat brain membranes)
- recorded-conditions: rat brain membranes, [3H]SR141716A; read-out: Binding rat pKi (converted)
Here the recorded log10 of Ki is given for each entry.
The base-10 logarithm of Ki, taken with Ki in nM, is what appears here.

These recorded examples may help you get a feel for the data.
molecule="CCN(CCNC(=O)c1ccc2c(c1)N=C(c1ccccc1)c1ccccc1S2)c1ccccc1 [drawing 1245]" reading=1.20
molecule="CCCCNC(=O)c1ccc2c(c1)N=C(c1ccc(Cl)c(Cl)c1)c1ccccc1S2 [drawing 1311]" reading=0.50
molecule="CCCC1=Nc2cc(C(=O)NCC(C)c3ccccc3)ccc2Sc2ccccc21 (centres unmarked) [drawing 1395]" reading=1.50

Q: Query (molecule): `O=C(NN1CCCCC1)c1ccc2c(c1)N=C(c1ccc(Cl)cc1)c1ccccc1O2` ; field requested: log10 of Ki
Result: 1.90

Q: Now consider O=C(NCCC(F)(F)F)c1ccc2c(c1)N=C(c1ccc(Cl)cc1F)c1ccccc1S2 [drawing 1377] .
Result: 0.70

Q: Now the molecule Cc1ccc(CNC(=O)c2ccc3c(c2)N=C(c2cccc(Cl)c2)c2ccccc2S3)o1 [drawing 1231]
Result: -0.20

Q: Also O=C(NC1CCCC1)c1ccc2c(c1)N=C(c1ccc(Cl)cc1)c1ccccc1S2 [drawing 1436] ?
Result: 1.70

Q: Please do the same for O=C(NN1CCCCC1)c1ccc2c(c1)N=C(c1cccc(Br)c1)c1ccccc1S2 [drawing 1487] as well.
Result: 1.00

----------
- target-under-test: native CB1 receptors (Rattus norvegicus, UniProt P20272)
- test: CB1 receptor rat binding assay ([3H]SR141716A, rat brain membranes)
- recorded-conditions: rat brain membranes, [3H]SR141716A; read-out: Binding rat pKi (converted)
Criterion: Ki strictly under 8 nM. Met: MET. Not met: NOT MET.

Q: Ki strictly < 8 nM for this compound? CC(C)CNC(=O)c1ccc2c(c1)N=C(c1cccc(Cl)c1)c1ccccc1S2 [drawing 1361]
Result: MET

----------
- target-under-test: native CB1 receptors (Rattus norvegicus)
- test: CB1 receptor rat binding assay ([3H]SR141716A, rat brain membranes)
- recorded-conditions: rat brain membranes, [3H]SR141716A
Form field: Binding rat Inh % (one value per entry).
Please report the result as a number followed by the unit.

compound="O=C(NCCCC(F)(F)F)c1ccc2c(c1)N=C(c1ccc(Cl)cc1F)c1ccccc1S2 [drawing 1175]" endpoint="Binding rat Inh %" reading=87%
compound="O=C(NCc1cccs1)c1ccc2c(c1)N=C(c1ccc(F)cc1)c1ccccc1S2 [drawing 1178]" endpoint="Binding rat Inh %" reading=97%

Q: What is its Binding rat Inh % for native CB1 receptors (Rattus norvegicus)? Entry: COc1cccc(C2=Nc3cc(C(=O)NCCC(F)(F)F)ccc3Sc3ccccc32)n1 [drawing 1237]
Result: 91%

Q: Ok, now CCCNC(=O)c1ccc2c(c1)N=C(c1ccc(OC)cc1)c1ccccc1S2 [drawing 1403]
Result: 80%

Q: # iterate: CCCCNC(=O)c1ccc2c(c1)N=C(c1ccc(Cl)s1)c1cc(Cl)ccc1S2 [drawing 1426]
Result: 85%

Q: Same read-out for O=C(NC1CCCC1)c1ccc2c(c1)N=C(c1cccc(Cl)c1)c1ccccc1S2 [drawing 1547] ?
Result: 84%

Q: Another compound: Cc1cccc(C2=Nc3cc(C(=O)NCC(C)C)ccc3Sc3ccccc32)n1 [drawing 1472]
Result: 96%

Q: Same question, COCCNC(=O)c1ccc2c(c1)N=C(c1cccc(F)c1)c1ccccc1S2 [drawing 1468] this time
Result: 86%
